The reported measurements were obtained from ChEMBL document CHEMBL1201862.

Test system: ACHN
test_name: NCI tumour cell line growth inhibition, 48 h
Calls of active or inactive are those of the source. Cut-off read from the data, not from the text of the source: active = GI50 up to about 1.1 µM and inactive = higher.
measured_quantity: GI50

Return reported GI50. Input compound: CCSC1=C(C)N(/C=N/C(C)(C)C)CC1
> 100 µM (inactive)

Fill in reported GI50 for this entry: CCOC(=O)N/N=C(/N)Cc1ccc(Cl)cc1
> 100 µM (inactive)

Kindly indicate its recorded GI50. Item: CCOC(=O)c1nnc2c(C#N)c(-c3ccccc3)c(C)n2c1N
29.9 µM (inactive)

Check the records and state GI50 for O=c1[nH]c2ccccc2c(=O)n1/N=C/c1ccc(O)cc1
> 100 µM (inactive)

Please report the measured GI50 for C[C@]12CC[C@H]3[C@@H](CCC4=CC(=O)C=C[C@@]43O)[C@@H]1CCC2=O
> 100 µM (inactive)

Please look at this compound and report its GI50: O=C(O)CCSC(CC1(c2ccc(Cl)cc2)NC(=O)CCS1)c1ccccc1 (stereo not drawn)
25.5 µM (inactive)

Output measured GI50 for this item: CCCCCCCCCCCc1cc(=O)c2c(O)cccc2o1
> 100 µM (inactive)

Give the value of GI50 reported for the following: CCC1=CC(OCc2ccccc2)C(CCN(Cc2ccccc2)C(=O)OCc2ccccc2)C1 (stereo not drawn)
15.3 µM (inactive)

====

Tested on: HOP-18
test_name: NCI tumour cell line growth inhibition, 48 h
Activity calls are given as the source filed them. Rule as the data show it: active = GI50 up to about 1.1 µM and inactive = higher.
measured_quantity: GI50

Send back HOP-18 GI50 of C/C(=N\NS(=O)(=O)c1ccc(C)cc1)C(CN1CCCCC1)C(c1ccccc1)c1c(O)c2ccccc2oc1=O (stereo not drawn) only.
> 100 µM (inactive)

For HOP-18, give the measured GI50 of the entry CCSc1nc(N2CCCC2)s[s+]1.[O-][Cl+3]([O-])([O-])[O-]
> 100 µM (inactive)

Quote GI50 with test system HOP-18 for CCCCCC#COC1CC(C)CC[C@@H]1C(C)C (stereo partly drawn)
> 100 µM (inactive)

====

Test system: OVCAR-4
test_name: NCI tumour cell line growth inhibition, 48 h
Calls of active or inactive are those of the source. Rule as the data show it: active = GI50 up to about 1.1 µM and inactive = higher.
Would you kindly list GI50 for each of these compounds?

Please indicate recorded GI50 of CCSc1nc(N2CCCC2)s[s+]1.[O-][Cl+3]([O-])([O-])[O-] measured with OVCAR-4.
50.8 µM (inactive)

Jot down GI50 (OVCAR-4) of CCc1ccc(Cc2ccc(CC)c(NC(=O)C(=O)Cc3nc4ccccc4nc3C)c2CC)c(CC)c1NC(=O)C(=O)Cc1nc2ccccc2nc1C .
72.3 µM (inactive)

Under OVCAR-4, report GI50 for CCOC(=O)/C(=C\NCC(OCC)OCC)c1nc2ccccc2[nH]1
31.9 µM (inactive)

Tell me GI50 of CN(C(=O)[C@@H](NC(=O)OC(C)(C)C)c1ccccc1)[C@H]1CCCC[C@@H]1N1CCCC1 when tested on OVCAR-4.
> 100 µM (inactive)

Write GI50 of N#Cc1c(-c2cccc(Cl)c2)cc(-c2ccc(Cl)cc2)nc1N ; system used: OVCAR-4
15.7 µM (inactive)

====

Tested on: T47D
test_name: NCI tumour cell line growth inhibition, 48 h
The source made the active and inactive calls. No stated cut-off is given here; in the data, active = GI50 up to about 1.1 µM and inactive = higher.
For each of the compounds below, state its GI50.

For the compound COc1ccc(/C=N/c2ccc(-c3nc4ccccc4s3)cc2)cc1OC , give its measured GI50 value.
17.4 µM (inactive)

For the compound N#Cc1c(N2CCN(c3ccc([N+](=O)[O-])cc3)CC2)[n+]([O-])c2ccccc2[n+]1[O-] , give its reported GI50.
55.6 µM (inactive)

Name the recorded GI50 of the item CC(C)[C@H]1NC(=O)[C@H]2N=C(O[C@@H]2C)[C@@H]2CCCN2C(=O)[C@H](Cc2ccccc2)NC(=O)[C@@H]2COC(=N2)[C@@H](Cc2ccccc2)NC(=O)[C@@H]2COC1=N2 in your answer.
> 100 µM (inactive)

For N#Cc1c(-c2cccc(Cl)c2)cc(-c2ccc(Cl)cc2)nc1N , write its GI50.
27 µM (inactive)

Given the compound CCC(=O)Nc1ccc(/N=C/c2cccc(Oc3ccccc3)c2)cc1 , write its reported GI50.
91 µM (inactive)

Could you please provide reported GI50 for CN1CCN(c2cc3nc4cc(O)cc(O)c4c(O)c3cc2N)CC1 ? Thanks!
21.6 µM (inactive)

Return GI50 (reported value) for this compound: COc1cc2cc(C(=O)N3CC(CCl)c4ccc([N+](=O)[O-])cc43)[nH]c2c(OC)c1OC (centres undefined)
> 100 µM (inactive)

Annotate the compound CCN(CC)Cc1ccc(Nc2c3ccccc3nc3ccccc23)cc1 with its measured GI50.
4.16 µM (inactive)

Supply reported GI50 belonging to this compound: Clc1nc(NC23CC4CC(CC(C4)C2)C3)nc(NC23CC4CC(CC(C4)C2)C3)n1
10.5 µM (inactive)
